pKi: −log10 of the molar value.
parameterMeasured: pKi

[Q] Determine reported pKi for CC(C)(C)c1nc(N2CCC(F)(F)C2)c2nn(Cc3ccc(C4(C(F)(F)F)N=N4)cc3Cl)nc2n1 [US10457686, Example 1] ; test system: UniProtKB P21554.
Sequence (P21554 whole entry): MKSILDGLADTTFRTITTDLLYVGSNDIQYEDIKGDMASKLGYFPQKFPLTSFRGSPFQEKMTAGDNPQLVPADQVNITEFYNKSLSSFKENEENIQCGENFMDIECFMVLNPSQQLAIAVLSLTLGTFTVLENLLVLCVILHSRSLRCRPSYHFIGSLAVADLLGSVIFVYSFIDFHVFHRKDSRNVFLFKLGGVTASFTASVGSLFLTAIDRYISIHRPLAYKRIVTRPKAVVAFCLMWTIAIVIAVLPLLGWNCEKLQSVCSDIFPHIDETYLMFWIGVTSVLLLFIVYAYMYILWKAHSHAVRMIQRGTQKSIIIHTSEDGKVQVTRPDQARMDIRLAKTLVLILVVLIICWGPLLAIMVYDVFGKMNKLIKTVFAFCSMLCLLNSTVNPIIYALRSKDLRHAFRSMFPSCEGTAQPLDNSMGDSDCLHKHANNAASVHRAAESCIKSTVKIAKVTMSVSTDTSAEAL
[A] < 5.00
